Ref: the supplement of paper PMC10724198

System: Saccharomyces cerevisiae;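 further: PSI is a weighted mean of sequencing reads over stability bins, variants kept only with over 10 reads, mCherry proximal and sfGFP distal, peptide attached via GGGS linker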
testDetails: protein stability index of tFT-peptide fusion (C-terminal peptide) (PSI (0-1 scale)); higher = more stable (slower turnover)
particulars: genetic background: wild type; temperature: 30 C
endpoint: protein stability index
Lab note: jot the number down without any unit.

Solved cases below.
ILDNWQFSYIKD
0.713
MCFLSCCSFRFC
0.616
SEKILCTGECAA
0.619
RSETGYGTSWGA
0.627
VAACVSLFCGAL
0.719
GGGGGGGGGGGV
0.709

Ask: Tell me its protein stability index given WVMREIVFGSLY as the entry.
Result: 0.698

Ask: Tell me its protein stability index given QSAPPPLPPRRR as the entry.
Result: 0.69

Ask: Tell me its protein stability index given KKKIKKKKEKNT as the entry.
Result: 0.664
